Values from PubChem BioAssay AID463173

tested on: DeltatarO mutant; assay: S. aureus survival, RN4220 and DeltatarO strains – OD600, teichoic acid synthesis inhibitors, primary screen (AID 463173); details: S. aureus RN4220 wild type/DeltatarO growth, OD600, 18 h, screened at 18.75 µg/mL (by protocol)
The campaign covered roughly 52,000 compounds. About 4,300 (8.3%) were called active. Rule as the data show it: active = survival mostly below about 52% (no sharp cut-off); inactive = mostly above about 56%. This excerpt belongs to a sample that is enriched for actives.
Mark one answer only. Choices: active, inactive

Below are worked cases with known answers.
Cc1ccc(Cn2c(SCC(=O)NCc3ccccc3Cl)nc3ccsc3c2=O)cc1 active
COc1ccc(Nc2cc(C(=O)NCCCN3CCN(c4ccccc4F)CC3)c3ccccc3n2)c(OC)c1 active
O=C(c1ccccc1)N1c2nc(-c3ccco3)nn2C2(CCCCC2)[C@@H]2CCCC[C@@H]21 inactive
Cc1ccc(Cn2c(SCC(=O)NCc3ccccc3)nc3ccsc3c2=O)cc1 inactive

Check the results log: what was the call for Cc1ccc(C(=O)Nc2ccc(C(=O)OCc3cc(=O)n4ccsc4n3)cc2)cc1 ?
inactive

For this compound, state the assay outcome: Cc1ccc(CNC(=O)c2nc(SCc3ccccc3C)ncc2Cl)cc1
inactive

* * *

system: DeltatarO mutant; test: S. aureus survival, RN4220 and DeltatarO strains – OD600, teichoic acid synthesis inhibitors, primary screen (AID 463173); conditions: S. aureus RN4220 wild type/DeltatarO growth, OD600, 18 h, active compounds read low, screened at 18.75 µg/mL (by protocol)
Screen size: about 52,000 compounds; about 4,300 (8.3%) were called active. This excerpt belongs to a sample that is enriched for actives.
Mark 1 (yes) only for survival values smaller than 70%; exact matches and larger values are 0 (no).

MOLECULE	TESTED ON	LABEL CLASS
Cc1ccc(NC(=O)C2CCN(S(=O)(=O)c3c(C)noc3C)CC2)cc1	DeltatarO mutant	0 (no)
CCN1CCN(c2cc(C)c3cc(NC(=O)c4cc(OC)c(OC)c(OC)c4)ccc3n2)CC1	DeltatarO mutant	0 (no)
COc1ccc(CC(=O)Nc2ccc3nc(Nc4ccc(OC)cc4)cc(C)c3c2)cc1	DeltatarO mutant	1 (yes)
O=C(NCCc1ccccc1)c1cnn(-c2ccc(F)cc2)c1-n1cccc1	DeltatarO mutant	1 (yes)
O=C(Nc1ccc(F)cc1Cl)n1ncc2cc(Cl)ccc21	DeltatarO mutant	1 (yes)

Threshold test, survival < 70%: Cn1c(=O)c2[nH]c(=S)[nH]c2n(C)c1=O
0 (no)

Please determine if Cc1cc(N2CCN(C)CC2)nc2ccc(NC(=O)c3ccccc3F)cc12 is below 70% in terms of survival.
0 (no)

Could you please tell me whether survival recorded for Cc1ccc(CCNC(=O)c2cc(C)nc3c2c(C)nn3-c2ccc(C)cc2)cc1 is less than 70%?
1 (yes)

* * *

test system: DeltatarO mutant; test: S. aureus survival, RN4220 and DeltatarO strains – OD600, teichoic acid synthesis inhibitors, primary screen (AID 463173); settings: S. aureus RN4220 wild type/DeltatarO growth, OD600, 18 h, screened at 18.75 µg/mL (by protocol)
The whole screen tested about 52,000 compounds, of which about 4,300 (8.3%) were called active. No stated cut-off is given here; in the data, active means survival mostly below about 52% (no sharp cut-off); inactive means mostly above about 56%. The entries come from a sample that favours actives as a whole.
Result category, one only: active, inactive

COc1ccccc1-c1cc(C(=O)Nc2c(C)nn(Cc3ccc(Cl)cc3)c2C)no1 active

Please indicate how the test categorized Cc1cc(C(=O)Nc2c(C)nn(Cc3ccc(F)cc3)c2C)no1 .
inactive

Write down the call the test reported for this compound. Item: COc1ccc(OC)c(-c2cc(C(=O)Nc3c(C)nn(Cc4ccc(C)cc4)c3C)no2)c1
active

What was the test verdict on CCc1cc(C(=O)Nc2c(C)nn(Cc3ccccc3Cl)c2C)no1 ?
inactive

Dear colleague, could you share the recorded outcome for COc1cccc(-c2cc(C(=O)Nc3c(C)nn(Cc4ccccc4Cl)c3C)no2)c1 when you have a moment?
active

* * *

test system: DeltatarO mutant; experiment: S. aureus survival, RN4220 and DeltatarO strains – OD600, teichoic acid synthesis inhibitors, primary screen (AID 463173); settings: S. aureus RN4220 wild type/DeltatarO growth, OD600, 18 h, screened at 18.75 µg/mL (by protocol)
In all, about 52,000 compounds went through this assay and about 4,300 (8.3%) were called active. Cut-off read from the data, not from the text of the source: active = survival mostly below about 52% (no sharp cut-off); inactive = mostly above about 56%. The full list was thinned out, with actives kept by preference.
The reply should name one outcome from active, inactive

These solved cases illustrate the format of a correct answer.
COMPOUND	LABEL CLASS
COC(=O)c1ccc(NC(=O)C(=O)NCC(c2cccnc2)N2CCc3ccccc32)cc1 (stereo unspecified)	active
CCOc1ccc(OCC)c(NC(=O)c2cnn(-c3ccc(F)cc3)c2-n2cccc2)c1	inactive
O=C(O)CSCCn1cccn1	inactive
CCCCC(=O)Nc1ccc(C(=O)OCc2cc(=O)n3ccsc3n2)cc1	inactive
O=C1CS/C(=N/c2nc(-c3ccccc3)cs2)N1	inactive

I would be grateful if you could indicate the recorded call for CC(=O)c1ccc(NC(=O)CCCc2nc(-c3cccc(C)c3)no2)cc1 .
inactive

What is the recorded call for this compound in the test? Cc1nn(-c2ccccc2)c2sc(C(=O)N/N=C/c3ccccc3)cc12
inactive

Please indicate how the test categorized CC(=O)Nc1cccc(NC(=O)CCn2cnc3cc(C)c(C)cc32)c1 .
inactive

Fill in: this test's call for CCOc1ccc(NC(=O)c2cc3c(C)nn(-c4ccccc4)c3s2)cc1 is ___
inactive

Just curious, what result did Cc1cccc(C)c1NC(=O)C(=O)NCC(c1cccnc1)N1CCc2ccccc21 (stereo unspecified) get here?
inactive

What was the test verdict on Cc1cccc(NC(=O)c2cc3c(C)nn(-c4ccccc4)c3s2)c1 ?
active

* * *

test system: DeltatarO mutant; experiment: S. aureus survival, RN4220 and DeltatarO strains – OD600, teichoic acid synthesis inhibitors, primary screen (AID 463173); conditions: S. aureus RN4220 wild type/DeltatarO growth, OD600, 18 h, active compounds read low, screened at 18.75 µg/mL (by protocol)
In all, about 52,000 compounds went through this assay and about 4,300 (8.3%) were called active. The sample as a whole holds a higher share of actives than the screen did.
MEASURED ENDPOINT: survival (%)
Write the answer as a number in %, unit excluded.

Some compounds with known survival results, for comparison:
Cc1cccc(NC(=O)c2cc(-c3ccc4c(c3)OCCO4)on2)c1 69
COc1ccccc1-c1nc(SCC(=O)NCc2ccc(C)cc2)c2c(=O)n(C)c(=O)n(C)c2n1 69
CCOC(=O)c1cc2c(=O)n3ccccc3nc2n(CCCOC)c1=NC(=O)c1c(-c2c(F)cccc2Cl)noc1C 54
O=C(Nc1cc(Cl)ccc1O)c1cc(-c2ccc3c(c2)OCO3)on1 58

What value of survival has been recorded for this entry: CCN(CC)S(=O)(=O)c1ccc2c(c1)c(=O)c(C(=O)NCCc1ccccc1)cn2C
85

* * *

test system: DeltatarO mutant; test: S. aureus survival, RN4220 and DeltatarO strains – OD600, teichoic acid synthesis inhibitors, primary screen (AID 463173); conditions: S. aureus RN4220 wild type/DeltatarO growth, OD600, 18 h, active compounds read low, screened at 18.75 µg/mL (by protocol)
The whole screen tested about 52,000 compounds, of which about 4,300 (8.3%) were called active. This is one part of a sample in which actives are shown more often than they occur.
Define the label as Criterion met when survival is strictly less than 70% and as Criterion not met in all remaining cases.

COMPOUND	LABEL CLASS
COc1ccc(C2=NC(c3ccncc3)=Nc3ccc(Br)cc3N2)cc1	Criterion not met
COc1cc(/C=C(\C#N)C(=O)NCC2CCCO2)ccc1O (stereo unspecified)	Criterion not met
CCOC(=O)c1cc2c(=O)n3ccccc3nc2n(Cc2ccco2)c1=NC(=O)c1c(F)cccc1Cl	Criterion met
CCn1c(=O)cc(SCC(=O)NCCc2cc(OC)ccc2OC)c2ccccc21	Criterion met
O=C(NCC(c1cccnc1)N1CCN(c2ccccc2F)CC1)c1ccc(F)cc1 (stereo unspecified)	Criterion not met

survival under 70%? Item: CCOc1ccc(NC(=O)N(C)CCc2c(C)nn(C)c2C)cc1
Criterion not met

Say whether its survival is strictly beneath 70%. Entry: O=C(Nc1nncs1)C1c2ccccc2Oc2ccccc21
Criterion not met

* * *

Each item that follows carries a reported survival.
tested on: DeltatarO mutant; test: S. aureus survival, RN4220 and DeltatarO strains – OD600, teichoic acid synthesis inhibitors, primary screen (AID 463173); settings: S. aureus RN4220 wild type/DeltatarO growth, OD600, 18 h, active compounds read low, screened at 18.75 µg/mL (by protocol)
About 4,300 (8.3%) of roughly 52,000 compounds were called active. Shown is part of a subset that was picked to be rich in actives.
Field: numeric (%). Do not append units.

Which value of survival has been reported for COc1cc(NC(=O)C2CCN(c3cnc4ccccc4n3)CC2)cc(OC)c1OC in the records?
-5

* * *

test system: DeltatarO mutant; assay: S. aureus survival, RN4220 and DeltatarO strains – OD600, teichoic acid synthesis inhibitors, primary screen (AID 463173); conditions: S. aureus RN4220 wild type/DeltatarO growth, OD600, 18 h, screened at 18.75 µg/mL (by protocol)
Out of some 52,000 compounds screened, about 4,300 (8.3%) were called active. Cut-off read from the data, not from the text of the source: active = survival mostly below about 52% (no sharp cut-off); inactive = mostly above about 56%. For the sample, actives were picked, then their nearest neighbours and some compounds at random.
Select the matching outcome among 1 for active, 0 for inactive

Field: example entries. Status: answers known.
COMPOUND	LABEL CLASS
Cc1ccc(C2c3c(-c4ccccc4O)n[nH]c3C(=O)N2CCCO)cc1 (configuration not stated)	0
CC(C)CC(=O)Nc1ccc(Cl)c(-c2nc3ccccc3[nH]2)c1	1
CCOC(=O)c1c(NC(=O)CSc2cn(CCNC(=O)c3ccc(OCC)cc3)c3ccccc23)sc2c1CCCC2	0
CCC(=O)Nc1cccc(-c2nc3ccccc3[nH]2)c1C	0

Hi, sorry to bother you, what did the test record for Cc1cccc(C)c1NC(=O)c1cc2sccc2n1Cc1ccc(F)cc1 ?
0

What is the recorded call for this compound in the test? CCNC1CC(=O)N(c2ccc(C(=O)OCC)cc2)C1=O (configuration not stated)
0

Call for entry Cc1ccc(-n2c(=O)c3c4c(sc3n(CC(=O)C(C)(C)C)c2=O)CCCCC4)cc1C :
0

Returns: the outcome recorded for COc1cccc(CNC(=O)CSc2nc(=O)[nH]c3c2CCC3)c1 in this assay.
0

# outcome recorded in this test, key = CC(NC(=O)CSc1n[nH]c(-c2ccccc2Cl)n1)c1nc2ccccc2[nH]1 (configuration not stated)
0

State the result this test recorded for CCc1ccccc1NC(=O)N1CCOc2ccccc21 .
0

# lookup: test call for CCOC(=O)C1CCCN(C(=O)c2cc3c(Cl)nc4ccccc4c3s2)C1 (configuration not stated)
1

In this assay, the call recorded for COc1ccc(NC(=O)CSc2ccc3nc(-c4ccccc4)cn3n2)cc1OC was what?
0
